Sourced from patent US20220089784A1

experimental-system: BoNT/A1 holotoxin (Hall hyper) (Clostridium botulinum, UniProt P0DPI0 2-1296)
method: yeast scFv FACS
Below, each entry is listed with its recorded Kd.
Quick note: give the figure in nM, leave out the unit.

{"binder": "7C8 scFv (scFv, mouse) scFv: LQLKQSGPGLVKPSQSLSLTCSVTGYSITSGYYWYWIRQFPGNKLEWMGYISYDGSNNYNPSLKNRISITRDTSKNQFFLKLNSVTTEDTATYYCARNLGLWYFDVWGTGTPLTVSSVDLKSGGSTSGSGKPGSGEGSSGSAREIVLTQSPAILSASPGEKVTMTCRASSSVRYMHWYQQKPGSSPKPWIYATSNLASGVPARFSGSGSGTSYSLTISRVEAEDAATYYCQQWSGNAPTFGGGTKLEIK", "unit-tag": "nM", "Kd": 0.73}

Next, consider the following binder.
Enquiry: Name the reported Kd value associated with the binder 9B2 scFv (scFv, mouse) scFv: QVQLQQSGAELVRPGASVKLSCTASGFNIEDDYMHWVKQRPEQGLEWIGRIDPANGNTEYAPKFQDKATITADTSSNTAYLQLSRLTSEDTAVYYCARGGWLGNYYAMDYWGQGTSVTVSSVDLKSGGSTSGSGKPGSGEGSSGSARDIVMTQTPLTLSVTIGQPASISCRSSQSLLHNYGNTYLHWYLQKPGQSPKLLIYKVSNRFSGVPDRFSGSGSGTDFTLKISRVEAEDLGVYFCSQGTHVPWTFGGGTKLEIK
Return: 232
